# credit: ChEMBL document CHEMBL3885881

# Species: Rattus norvegicus
# method notes: DrugMatrix - Regimen: Daily Repeat
# Assay type: toxicity, organism-based, Sprague-Dawley
# Parameters: regimen Daily Repeat, gender Male, age 6-8 weeks
# measurement setup: in vivo, po, 0 mg/kg, 72 h, tissue Plasma, route oral GAVAGE, dose level Control, time 3 day, […]
quantity name: TOTAL PROTEIN

> print(dat)
                                    compound      value
 1  CC(=O)[C@H]1CC[C@H]2[C@@H]3CCC4=CC(=O)CC[C@]4(C)[C@H]3CC[C@]12C [PROGESTERONE]  5.77 G/DL
 2      CCCCCCCCCc1ccc(O)cc1 [4-NONYLPHENOL]   5.7 G/DL
 3  Oc1c(Cl)cc(Cl)cc1Sc1cc(Cl)cc(Cl)c1O [BITHIONOL]  5.88 G/DL
 4  CC1=C(/C=C/C(C)=C/C=C/C(C)=C\C(=O)O)C(C)(C)CCC1 [ISOTRETINOIN]  5.82 G/DL
 5  COCc1c(C(C)C)nc(C(C)C)c(/C=C/[C@@H](O)C[C@@H](O)CC(=O)O)c1-c1ccc(F)cc1 [CERIVASTATIN]   5.7 G/DL
 6  CC(C)n1c(/C=C/C(O)CC(O)CC(=O)O)c(-c2ccc(F)cc2)c2ccccc21 (stereo not given) [FLUVASTATIN]  5.88 G/DL
 7  COC1=CC(=O)C[C@@H](C)[C@]12Oc1c(Cl)c(OC)cc(OC)c1C2=O [GRISEOFULVIN]  5.68 G/DL
 8  CC(C)(Oc1ccc(CCNC(=O)c2ccc(Cl)cc2)cc1)C(=O)O [BEZAFIBRATE]  5.78 G/DL
 9  Cn1cnc([N+](=O)[O-])c1Sc1ncnc2nc[nH]c12 [AZATHIOPRINE]   5.8 G/DL
10                        C=CCN [ALLYLAMINE]   6.7 G/DL

---

Examples of molecules with documented SODIUM follow.
# Species: Rattus norvegicus
# method notes: DrugMatrix - Regimen: Daily Repeat
# Format: toxicity, organism-based, Sprague-Dawley
# Parameters: regimen Daily Repeat, gender Male, age 6-8 weeks
# measurement setup: in vivo, po, 0 mg/kg, 120 h, tissue Plasma, route oral GAVAGE, dose level Control, time 5 day, vehicle .5 % CMC
quantity name: SODIUM

molecule	quantity name	value
CC[C@H]1OC(=O)[C@H](C)[C@@H](O[C@H]2C[C@@](C)(OC)[C@@H](O)[C@H](C)O2)[C@H](C)[C@@H](O[C@@H]2O[C@H](C)C[C@H](N(C)C)[C@H]2O)[C@](C)(O)C[C@@H](C)/C(=N\OCOCCOC)[C@H](C)[C@@H](O)[C@]1(C)O	SODIUM	148.33 MEQ/L
NCC(=O)O	SODIUM	144.83 MEQ/L
CCC[C@@H]1C[C@@H](C(=O)N[C@@H]([C@H]2O[C@H](SC)[C@H](O)[C@@H](O)[C@H]2O)[C@@H](C)O)N(C)C1	SODIUM	142.75 MEQ/L
CCOC(=O)OC(C)OC1=C(C(=O)Nc2ccccn2)N(C)S(=O)(=O)c2ccccc21 (centres undefined)	SODIUM	144.82 MEQ/L
CN1C(C(=O)Nc2ccccn2)=C(O)c2ccccc2S1(=O)=O	SODIUM	150.17 MEQ/L
O=C1CCc2cc(OCCCCc3nnnn3C3CCCCC3)ccc2N1	SODIUM	151.5 MEQ/L
COC(=O)c1ccc(O)cc1	SODIUM	142.65 MEQ/L
CCc1ccc(C(=O)C(C)CN2CCCCC2)cc1 (centres undefined)	SODIUM	144.25 MEQ/L
O=c1cc(-c2ccccc2)oc2c1ccc1ccccc12	SODIUM	149.6 MEQ/L
CC(C)[C@H](N)C(=O)OCCOCn1cnc2c(=O)[nH]c(N)nc21	SODIUM	143.62 MEQ/L
CC(/C=C1\SC(=S)N(CC(=O)O)C1=O)=C\c1ccccc1	SODIUM	143.03 MEQ/L
CN1CCC[C@@H]1CCO[C@](C)(c1ccccc1)c1ccc(Cl)cc1	SODIUM	143.03 MEQ/L
C[C@]12CCC(=O)C=C1CC[C@@H]1[C@@H]2C(=O)C[C@@]2(C)[C@H]1CC[C@]2(O)C(=O)CO	SODIUM	148.33 MEQ/L
CCc1cccc2c3c([nH]c12)C(CC)(CC(=O)O)OCC3 (centres undefined)	SODIUM	148.33 MEQ/L
COc1c(C)c2c(c(O)c1C/C=C(\C)CCC(=O)OCCN1CCOCC1)C(=O)OC2 [MYCOPHENOLATE MOFETIL]	SODIUM	143.03 MEQ/L
O=c1[nH]cc(F)c(=O)[nH]1	SODIUM	144.68 MEQ/L
CC1(C)[C@H]2CC[C@]1(C)C(=O)C2 [(-)-CAMPHOR]	SODIUM	143.8 MEQ/L
Brc1ccccc1	SODIUM	144.82 MEQ/L
Cc1c(-c2ccccc2)oc2c(C(=O)OCCN3CCCCC3)cccc2c1=O [FLAVOXATE]	SODIUM	143.95 MEQ/L
